Source listed as patent US11028080B2.

target: LRRK2 G2019S enzyme (Homo sapiens (Human), UniProt Q5S007, G2019S); test: LRRK2 G2019S biochemical TR-FRET assay (LRRKtide substrate); settings: 5 nM LRRK2, 134 μM ATP, 60 minute reaction time, 23° C.
Sequence (Q5S007 whole entry G2019S): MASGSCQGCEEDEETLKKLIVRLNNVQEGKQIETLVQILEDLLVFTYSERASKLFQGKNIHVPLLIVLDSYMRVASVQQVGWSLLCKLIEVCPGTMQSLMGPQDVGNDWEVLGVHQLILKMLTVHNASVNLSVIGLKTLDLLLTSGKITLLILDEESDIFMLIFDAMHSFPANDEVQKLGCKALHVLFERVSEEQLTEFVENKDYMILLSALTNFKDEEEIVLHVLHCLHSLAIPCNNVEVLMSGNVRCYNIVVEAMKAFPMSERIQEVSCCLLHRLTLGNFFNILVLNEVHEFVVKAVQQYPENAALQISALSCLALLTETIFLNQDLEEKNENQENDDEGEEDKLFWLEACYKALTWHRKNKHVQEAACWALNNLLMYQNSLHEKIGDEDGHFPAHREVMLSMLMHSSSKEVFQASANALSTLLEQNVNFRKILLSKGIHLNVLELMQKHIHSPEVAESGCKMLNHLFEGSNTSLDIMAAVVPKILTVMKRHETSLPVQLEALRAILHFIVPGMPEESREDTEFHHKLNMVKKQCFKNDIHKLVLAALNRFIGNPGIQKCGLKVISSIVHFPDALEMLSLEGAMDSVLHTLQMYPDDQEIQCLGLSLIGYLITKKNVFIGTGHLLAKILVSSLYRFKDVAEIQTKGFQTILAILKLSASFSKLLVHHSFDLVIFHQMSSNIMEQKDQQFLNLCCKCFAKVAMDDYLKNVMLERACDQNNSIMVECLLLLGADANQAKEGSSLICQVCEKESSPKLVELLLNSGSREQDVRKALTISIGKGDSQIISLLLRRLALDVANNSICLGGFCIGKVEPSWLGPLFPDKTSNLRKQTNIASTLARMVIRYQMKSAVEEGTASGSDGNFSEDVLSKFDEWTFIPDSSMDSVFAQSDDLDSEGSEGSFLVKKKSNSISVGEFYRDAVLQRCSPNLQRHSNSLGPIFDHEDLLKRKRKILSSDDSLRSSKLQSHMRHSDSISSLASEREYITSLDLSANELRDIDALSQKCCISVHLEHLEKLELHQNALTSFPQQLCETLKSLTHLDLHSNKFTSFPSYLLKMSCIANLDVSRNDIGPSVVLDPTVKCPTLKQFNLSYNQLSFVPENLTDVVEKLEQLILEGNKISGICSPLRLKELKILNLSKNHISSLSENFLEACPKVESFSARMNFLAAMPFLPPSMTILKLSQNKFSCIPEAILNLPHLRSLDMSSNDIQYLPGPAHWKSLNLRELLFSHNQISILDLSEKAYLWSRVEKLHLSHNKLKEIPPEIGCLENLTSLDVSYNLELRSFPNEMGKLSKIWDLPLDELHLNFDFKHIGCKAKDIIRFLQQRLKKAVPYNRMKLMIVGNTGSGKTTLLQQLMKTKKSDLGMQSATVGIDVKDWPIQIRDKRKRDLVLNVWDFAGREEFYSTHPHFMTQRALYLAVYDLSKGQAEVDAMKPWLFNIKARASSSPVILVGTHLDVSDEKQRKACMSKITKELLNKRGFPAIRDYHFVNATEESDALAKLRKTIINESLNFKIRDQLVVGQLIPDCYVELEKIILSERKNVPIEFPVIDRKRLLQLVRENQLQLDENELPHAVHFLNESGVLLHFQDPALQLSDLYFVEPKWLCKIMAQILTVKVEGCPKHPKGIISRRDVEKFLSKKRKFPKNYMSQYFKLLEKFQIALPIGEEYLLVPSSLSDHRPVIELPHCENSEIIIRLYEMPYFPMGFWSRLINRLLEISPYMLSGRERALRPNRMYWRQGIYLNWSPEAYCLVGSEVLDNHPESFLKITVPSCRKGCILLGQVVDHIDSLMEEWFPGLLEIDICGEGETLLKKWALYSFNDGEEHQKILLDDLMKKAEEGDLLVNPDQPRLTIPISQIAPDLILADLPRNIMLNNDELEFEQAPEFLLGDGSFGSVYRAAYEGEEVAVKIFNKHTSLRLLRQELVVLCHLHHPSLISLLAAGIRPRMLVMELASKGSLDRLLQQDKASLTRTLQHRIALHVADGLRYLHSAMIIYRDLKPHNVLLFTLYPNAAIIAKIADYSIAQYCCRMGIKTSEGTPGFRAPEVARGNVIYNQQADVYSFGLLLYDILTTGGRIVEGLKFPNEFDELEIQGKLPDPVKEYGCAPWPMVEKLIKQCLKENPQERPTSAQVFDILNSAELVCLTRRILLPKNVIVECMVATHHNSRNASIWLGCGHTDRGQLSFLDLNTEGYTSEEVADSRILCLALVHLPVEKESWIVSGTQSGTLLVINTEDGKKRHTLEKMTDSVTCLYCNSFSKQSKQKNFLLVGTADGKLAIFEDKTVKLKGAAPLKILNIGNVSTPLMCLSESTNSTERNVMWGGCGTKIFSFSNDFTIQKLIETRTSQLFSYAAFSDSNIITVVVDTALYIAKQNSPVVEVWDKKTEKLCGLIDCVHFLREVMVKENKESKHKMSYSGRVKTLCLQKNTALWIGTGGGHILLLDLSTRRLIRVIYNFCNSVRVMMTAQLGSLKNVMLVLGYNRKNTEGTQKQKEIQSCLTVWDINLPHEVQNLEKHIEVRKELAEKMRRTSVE
pIC50: −log10 of the molar value.
property: pIC50

Below are worked cases with known answers.
compound	pIC50
[2H]C([2H])([2H])C1(c2nc(C3CC3)c(Nc3ncc(C(F)(F)F)c(NC)n3)s2)CCNC1=O (single isomer, unassigned) [Compound 59]	> 7.52
COc1nc(Nc2sc(C(C)(C)C(N)=O)nc2Cl)ncc1Br [Compound 39]	> 7.52
CNc1nc(Nc2sc(C(C)(C)C(N)=O)nc2C)ncc1C(F)(F)F [Compound 22]	> 7.52

Consider now this further compound.
Recorded pIC50 of CCNc1nc(Nc2sc(C#N)nc2C)ncc1C(F)(F)F [Compound 27] , please. > 7.52
